Target: T1, human MSLN-R1-his protein (human, UniProt Q13421 296-390)
T1 construct: also called hMSLN-R1-his; human MSLN-R1 protein; not shown: His tag
T1 chain: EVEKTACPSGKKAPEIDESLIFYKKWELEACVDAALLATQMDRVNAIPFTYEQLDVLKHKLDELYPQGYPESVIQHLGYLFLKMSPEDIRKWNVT
Test: ELISA, coated antigen; antibody 10 nM
assayMetric: OD450
// print number alone

According to the records, this binder S009-F1.25.10 human-murine chimeric antibody (antibody, human IgG1, kappa, V domains shown, Chimeric IgG1/kappa) VH: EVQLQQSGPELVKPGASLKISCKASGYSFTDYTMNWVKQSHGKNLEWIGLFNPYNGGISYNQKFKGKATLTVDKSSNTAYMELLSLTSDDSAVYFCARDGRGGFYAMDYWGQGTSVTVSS VL: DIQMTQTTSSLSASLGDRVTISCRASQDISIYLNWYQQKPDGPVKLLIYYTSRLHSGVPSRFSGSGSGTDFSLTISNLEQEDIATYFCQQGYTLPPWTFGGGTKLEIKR displays OD450 of 0.04
